# system_name: T1, human LAG-3 expressed on cells (human, UniProt P18627 23-525)
# T1 sequence (looked up): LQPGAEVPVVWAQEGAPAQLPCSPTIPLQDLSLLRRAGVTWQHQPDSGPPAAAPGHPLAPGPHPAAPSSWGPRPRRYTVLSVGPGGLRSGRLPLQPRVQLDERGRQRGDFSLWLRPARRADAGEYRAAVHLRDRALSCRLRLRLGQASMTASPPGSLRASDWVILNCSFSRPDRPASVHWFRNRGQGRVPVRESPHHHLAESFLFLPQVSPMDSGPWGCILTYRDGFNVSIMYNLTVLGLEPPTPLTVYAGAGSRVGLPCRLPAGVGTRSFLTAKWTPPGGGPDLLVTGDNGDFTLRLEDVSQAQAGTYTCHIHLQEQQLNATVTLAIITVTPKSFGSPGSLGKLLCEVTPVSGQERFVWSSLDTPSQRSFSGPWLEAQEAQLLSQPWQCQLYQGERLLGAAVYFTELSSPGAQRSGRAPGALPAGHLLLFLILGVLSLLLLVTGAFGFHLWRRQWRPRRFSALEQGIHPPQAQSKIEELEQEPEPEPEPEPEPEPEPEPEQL
# assay_info: cell-based or functional assay
Each entry below carries its recorded Max IL-2.
// units = pg/mL; emit number, no label

Before answering, review these 2 worked examples.
binder	Max IL-2 [pg/mL]
mAb746 (antibody, V domains shown, murine hybridoma anti-LAG-3 mAb; also called rnAb746; 3502-mAb746) VH: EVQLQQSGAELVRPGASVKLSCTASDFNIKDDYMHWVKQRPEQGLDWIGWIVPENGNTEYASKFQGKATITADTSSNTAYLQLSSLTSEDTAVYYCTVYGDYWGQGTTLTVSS VL: DIQMTQSPSSLSASLGERVSLNCRASQEISGYLSWLQQKSDGTIKRLIYAASTLDSGVPKRFSGSRSGSDYSLTISSLESEDFADYYCLQYASYPLTFGAGTKLELK	654
mAb742 (antibody, V domains shown, murine hybridoma anti-LAG-3 mAb) VH: QGQLQQSGAELVRPGASVTLSCKASGYTFNDYEMHWVKQTPVHGLEWIGAIDPETGGTAYNQKFKGKAILTADKSSSTAYMELRSLTSEDSAVYYCIRWGSTVFPYWGQGTLVTVS VL: DGVLTQTPLSLPVNIGDQASISCKSTKSLLNSDGFTYLDWYLQKPGQSPQLLIYLVSNRFSGVPDRFSGSGSGTDFTLKISRVEAEDLGVYYCFQSNYLPWTFGGGTKLEIK	733

QUERY: Give the measured Max IL-2 of mAb744 (antibody, V domains shown, murine hybridoma anti-LAG-3 mAb; also called rnAb744) VH: QVQLQQSGAELVRPGTSVTLSCKASGYTFTDYEMHWMKQTPVHGLEWIGAIDPATGGTAYNQKFKGKAILTADKSSSTAYMDFRSLTSEDSAVYYCIRWGTTVFPYWGQGTLVTVS VL: DVVLTQTPLSLPVNIGDQASISCKSTKSLLNSDGFTYLDWYLQKPGQSPQLLIYLVSNRFSGVPDRFSGSGSGTDFTLKISRVEAEDLGVYYCFQSNYLPWTFGGGTKLEIK .
RESULT: 612
